Target: Dual specificity tyrosine-phosphorylation-regulated kinase 1A (Rattus norvegicus)
Assay type: biochemical, Homo sapiens
Active and inactive are the calls of the source.
MEASURED PARAMETER: AC50

1) COc1cccc(-c2nnc3n2N=C(C(C)(C)C)CS3)c1 8.72 µM (active)
2) COc1cc(/C=C2\SC(=O)NC2=O)ccc1Oc1ccc([N+](=O)[O-])cc1[N+](=O)[O-] 7.72 µM (active)
3) Cc1nc(COc2ccccc2Cl)sc1-c1ccnc(N)n1 0.235 µM (active)
4) COc1ccc(Nc2ncnc3nc[nH]c23)cc1OC 12 µM (active)

---

Catalogue of EC50 readings, one per entry.
Assay: Trypanosoma cruzi growth suppression in host cells – NIH3T3 host cells, beta-gal luminescence, confirmation (AID 2044);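 further: intracellular parasites grown in NIH/3T3 mouse fibroblasts as host cells; luminescent beta-galactosidase reporter signal from transgenic T. cruzi replicating inside host cells; inhibitors lower the luminescence signal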
Format: functional, cell-based
Calls of active or inactive are those of the source.
MEASURED PARAMETER: EC50

COMPOUND	MEASURED PARAMETER	DATA VALUE
COc1ccc(C(C(=O)NC2CCCCC2)N(C(=O)CCl)c2ccc(Cl)cc2)cc1 (stereo not drawn)	EC50	0.166 µM (active)
COc1ccc2c(c1)c(CC(=O)Nc1cc(C)ccc1C)c(C)n2C(=O)c1ccc(Cl)cc1	EC50	0.938 µM (active)
COCCn1/c(=N/C(=O)c2cc(-c3cccs3)nc3ccccc23)sc2cc(S(N)(=O)=O)ccc21	EC50	2.47 µM (active)
COc1cc2c(cc1OC)C(c1ccc(Br)cc1)NCC2 (stereo not drawn)	EC50	> 60 µM (not active)
Cc1cc(O)c(C(C)C)cc1C1(c2cc(C(C)C)c(O)cc2C)OC(=O)c2ccccc21	EC50	2.11 µM (active)
Cc1ccc(-c2nc(C(=O)NCCCN3CCOCC3)cc3c2[nH]c2ccccc23)cc1	EC50	1.36 µM (active)
Fc1ccc(N2CCN(c3ncnc4c3nnn4Cc3ccccc3Cl)CC2)cc1	EC50	2.46 µM (active)
O=[N+]([O-])c1ccc(CNCCc2ccccc2)cc1	EC50	0.528 µM (active)
